# methodNotes: NCI Yeast Anticancer Drug Screen. Data for the cln2 rad14 strain (AID 165);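 also: 0% = growth equal to vehicle treated cultures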
# runConditions: S. cerevisiae cln2 rad14 strain, at 50.0 µM, hits give high values
This is part of a sample that, as a whole, favours compounds with a hit. Of some 79,000 tested, about 15% had one in any assay.
Below: a set of entries, each annotated with reported growth inhibition.
State just the number; it will be interpreted in %.

Here are 4 compounds together with their reported answers.
* CCOC(=O)C1OC1(C)c1ccc(Cl)cc1 (configuration not stated) | 5.25
* COc1ccc2c(c1)CC1c3[nH]c4ccccc4c3CCN1C2 (configuration not stated) | 32.5
* N#CC(C#N)=CN1CCNC1=S | 16.6
* Cc1ccc(C(O)(c2ccc(C)cc2)C2CCCCC2=C(c2ccccc2)c2ccccc2)cc1 (configuration not stated) | -7.35

Incoming: What measured growth inhibition goes with O=C(O)/C=C/C(=O)Nc1cc(Cl)cc2c1-c1c(Cl)cc(Cl)cc1C2=O ?
Outgoing: -52.6

Incoming: Record: CN(C)CCC(O)c1ccccc1 (configuration not stated)
Outgoing: -20.5

Incoming: Record: CC1(C)OC2C(CO)OC(n3cnc4c(=S)nc(N)[nH]c43)C2O1 (configuration not stated)
Outgoing: -24.1

Incoming: Record: CN1C(=O)/C(=C2\SC(=O)N(CN3CCCCC3)C2=O)c2cc(Br)ccc21
Outgoing: 10.2

Incoming: Record: COc1ccc(C2c3cc4c(cc3OC(C)(OC)C2C)OCO4)cc1 (configuration not stated)
Outgoing: -14.8

Incoming: Record: COCC1OCCN1C (configuration not stated)
Outgoing: 17.4

Incoming: Record: CN(C)CC1CC=CCC1CN(C)C (configuration not stated)
Outgoing: -15.7

Incoming: Record: CC#CCOC(=O)c1ccccc1OC(C)=O
Outgoing: 9.7

Incoming: Record: OCCN(Cc1ccccn1)Cc1ccccn1
Outgoing: 11.2
